Hello, the source for this data is the supplement of paper PMC10567573, in case you need it.

variants and their reported protein stability index
B1: RIT1 (parent)
chain: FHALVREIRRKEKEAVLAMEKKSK

- Variants of: B1
- TEST DESCRIPTION: protein stability index of a GFP-peptide fusion (GPS, HEK-293T) (PSI 1-6); higher = more stable;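 note: lentivirally expressed fusions sorted by FACS into six bins by GFP to DsRed ratio, PSI derived from sequencing read proportions per bin multiplied by bin number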
- RUN CONDITIONS: c terminus: a fixed tail appended
Lab note: jot down the number only; don't add units.

Below are worked cases with known answers.
INSERT INTO results (variant, reading) VALUES
  ('V5S', 1.43),
  ('E20G', 1.41),
  ('V16Y', 1.95);

Field request: protein stability index | item: H2S
1.96

Can you look up the measured protein stability index of K21G for me?
2.17

// protein stability index lookup, key: L17C
2.16

Reported protein stability index, variant I8V : ____
1.78

Please give the measured protein stability index for this variant: A15T
2.18

// protein stability index lookup, key: R10E
1.7

Can you look up the measured protein stability index of A15M for me?
2.17

What measured protein stability index goes with I8K ?
2.31

// returns reported protein stability index for input A3E
1.48
